protein stability index by entry:
B1: PLAGL1 (parent)
chain: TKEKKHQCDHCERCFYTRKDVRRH

variants of: B1; assay: protein stability index of a GFP-peptide fusion (GPS, HEK-293T) (PSI 1-6); higher = more stable; details: c terminus: a fixed tail appended;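 note: lentivirally expressed fusions sorted by FACS into six bins by GFP to DsRed ratio, PSI derived from sequencing read proportions per bin multiplied by bin number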

MUT | protein stability index
T17V | 3.22
C8V | 3.12
T17H | 3.29
K4Y | 3.03
R18A | 3.54
F15Q | 3.79
R23T | 3.71
R13M | 3.26
D9R | 2.92
K5Q | 3.67
R18F | 2.76
K5R | 3.75
D20I | 2.65
K5L | 3.67
V21R | 3.95
H6E | 3.55
K4F | 3.21
T17A | 3.6
V21M | 3.52
V21F | 3.47
R23E | 4.26
F15I | 3.62
